Molecular target: Cannabinoid-1 receptor (CB1R) (Rattus norvegicus)
Construct: The tissue obtained from the brain of SD rats was homogenized; from tissue; host or cells: brain of SD rats (membrane pellet of the homogenate)
Assay: Cannabinoid-1 receptor (CB1R) binding affinity assay ([3H]CP-55940, rat CB-1 receptor binding protocol)
Conditions: brain tissue of SD rats, [3H]CP-55940, 30° C. 60 min; read-out: IC50
pIC50: −log10 of the molar value.
reportedProperty: pIC50

Consider the following illustrative entries.
{"molecule": "CC(C)(C)c1nnc(-c2nn(-c3ccc(Cl)cc3Cl)c(-c3ccc(Br)cc3)c2CO)s1 [Example 522]", "observedMeasurement": 8.34}
{"molecule": "CCc1c(-c2nnc(C(C)C)s2)nn(-c2ccc(Cl)cc2Cl)c1-c1ccc(Br)cc1 [Example 453]", "observedMeasurement": 7.57}
{"molecule": "CCC(C)c1nnc(-c2nn(-c3ccc(Cl)cc3Cl)c(-c3ccc(Cl)cc3)c2Cl)s1 (stereo not shown) [Example 539]", "observedMeasurement": 6.99}

A = CCc1c(-c2nnc(C3CCCCC3)s2)nn(-c2ccc(Cl)cc2Cl)c1-c1ccc(Br)cc1 [Example 374]
B = COc1ccc(C2(c3nnc(-c4nn(-c5ccc(Cl)cc5Cl)c(-c5ccc(Cl)cc5)c4Cn4cncn4)o3)CC2)cc1 [Example 319]
C = CC(C)(C)c1nnc(-c2nn(-c3ccc(Cl)cc3Cl)c(-c3ccc(Cl)cc3)c2CN2CCOC2=O)o1 [Example 307]
D = CCc1c(-c2nnc(C3(C)CC3)o2)nn(-c2ccc(Cl)cc2Cl)c1-c1ccc(Br)cc1 [Example 276]
Challenge: Arrange these molecules by their pIC50, starting with the largest number. # list labels per requested ordering
Response given: B, D, A, C
(B: 8.54, D: 7.89, A: 7.52, C: 6.90)

###

Biological target: Cannabinoid-1 receptor (CB1R) (Rattus norvegicus, UniProt P20272)
Construct: The tissue obtained from the brain of SD rats was homogenized; from tissue; host or cells: brain of SD rats (membrane pellet of the homogenate)
Sequence (P20272 whole entry): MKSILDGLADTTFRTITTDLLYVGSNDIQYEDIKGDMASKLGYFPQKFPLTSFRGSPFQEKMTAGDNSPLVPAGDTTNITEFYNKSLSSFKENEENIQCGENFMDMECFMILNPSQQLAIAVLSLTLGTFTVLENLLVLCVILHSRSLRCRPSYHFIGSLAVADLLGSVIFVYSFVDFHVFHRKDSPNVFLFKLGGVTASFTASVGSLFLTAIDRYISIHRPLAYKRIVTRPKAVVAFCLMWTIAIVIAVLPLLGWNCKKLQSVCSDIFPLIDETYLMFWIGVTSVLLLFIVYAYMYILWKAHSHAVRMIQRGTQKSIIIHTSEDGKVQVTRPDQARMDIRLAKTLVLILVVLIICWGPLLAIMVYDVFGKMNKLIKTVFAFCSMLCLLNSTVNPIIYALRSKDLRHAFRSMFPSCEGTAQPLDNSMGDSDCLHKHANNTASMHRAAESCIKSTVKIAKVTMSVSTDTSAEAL
Test: Cannabinoid-1 receptor (CB1R) binding affinity assay ([3H]CP-55940, rat CB-1 receptor binding protocol)
Details: IC50(nM), brain tissue of SD rats, [3H]CP-55940, 30° C. 60 min
reportedProperty: IC50 (nM)
Please reply with the bare figure in nM and do not write the unit itself.

{"molecule": "CCCCC(C)c1nnc(-c2nn(-c3ccc(Cl)cc3Cl)c(-c3ccc(Br)cc3)c2C)s1 (centres unmarked)", "reportedProperty": "IC50", "quantityUnit": "nM", "observedMeasurement": 11.5}
{"molecule": "C=CCC1(c2nnc(-c3nn(-c4ccc(Cl)cc4Cl)c(-c4ccc(Br)cc4)c3CC)o2)CC1", "reportedProperty": "IC50", "quantityUnit": "nM", "observedMeasurement": 9.57}
{"molecule": "COc1ccc(C2(c3nnc(-c4nn(-c5ccc(Cl)cc5Cl)c(-c5ccc(Cl)cc5)c4C)o3)CC2)cc1", "reportedProperty": "IC50", "quantityUnit": "nM", "observedMeasurement": 9.46}

Now, please, on to the next molecule.
Challenge: I am curious: what IC50 value has been reported for CCCCc1cnc(-c2nn(-c3ccc(Cl)cc3Cl)c(-c3ccc(Cl)cc3)c2C)o1 ?
Response given: 57.2

###

Biological target: Cannabinoid-1 receptor (CB1R) (Rattus norvegicus, UniProt P20272)
Construct: The tissue obtained from the brain of SD rats was homogenized; from tissue; host or cells: brain of SD rats (membrane pellet of the homogenate)
Assay: Cannabinoid-1 receptor (CB1R) binding affinity assay ([3H]CP-55940, rat CB-1 receptor binding protocol)
Conditions: brain tissue of SD rats, [3H]CP-55940, 30° C. 60 min; read-out: IC50
Protocol: The tissue obtained from the brain of SD rats was homogenized with a Dounce homogenate system in TME (50 mM Tris, 3 mM MgCl2 and 1 mM EDTA, pH 7.4) at 4° C., and the homogenate was centrifuged at 48,000 g for 30 min. at 4° C. […] The tissue concentrations were determined by Bradford protein analysis, and 148 μl of brain tissue of the required concentration was added to the plate. […]
pIC50: −log10 of the molar value.
reportedProperty: pIC50

1 = CCc1c(-c2nnc(C3(Cc4ccccc4)CC3)s2)nn(-c2ccc(Cl)cc2Cl)c1-c1ccc(Br)cc1
2 = Cc1c(-c2nnc(C(C)C3CCCC3)s2)nn(-c2ccc(Cl)cc2Cl)c1-c1ccc(Cl)cc1 (stereo not shown)
3 = Cc1c(-c2nnc(-c3ccccc3)s2)nn(-c2ccc(Cl)cc2Cl)c1-c1ccc(Cl)cc1
4 = CCc1cnc(-c2nn(-c3ccc(Cl)cc3Cl)c(-c3ccc(Cl)cc3)c2C)o1
Challenge: Rank items: key pIC50, increasing. Write the labels, ordered according to the request.
Response given: 3, 4, 2, 1
(3: 6.64, 4: 7.29, 2: 7.84, 1: 8.23)

###

Target: Cannabinoid-1 receptor (CB1R) (Rattus norvegicus)
Construct: The tissue obtained from the brain of SD rats was homogenized; from tissue; host or cells: brain of SD rats (membrane pellet of the homogenate)
Experiment: Cannabinoid-1 receptor (CB1R) binding affinity assay ([3H]CP-55940, rat CB-1 receptor binding protocol)
Conditions: brain tissue of SD rats, [3H]CP-55940, 30° C. 60 min; read-out: IC50
pIC50: −log10 of the molar value.
reportedProperty: pIC50

See these solved cases before continuing.
{"compound": "Clc1ccc(-c2c(Br)c(-c3nnc(C4(c5ccc(Cl)cc5)CC4)s3)nn2-c2ccc(Cl)cc2Cl)cc1", "pIC50": 7.89}
{"compound": "Cc1c(-c2nnnn2C23CC4CC(CC(C4)C2)C3)nn(-c2ccc(Cl)cc2Cl)c1-c1ccc(Cl)cc1", "pIC50": 6.89}
{"compound": "Cc1c(-c2nnc(C(C)(C)C)s2)nn(-c2ccc(Cl)cc2Cl)c1-c1ccc(Br)cc1", "pIC50": 7.90}
{"compound": "CCCC(C)c1nnc(-c2nn(-c3ccc(Cl)cc3Cl)c(-c3ccc(Br)cc3)c2C)s1 (stereo not drawn)", "pIC50": 7.84}
{"compound": "CC(C)NCc1c(-c2nnc(C(C)(C)C)o2)nn(-c2ccc(Cl)cc2Cl)c1-c1ccc(Cl)cc1", "pIC50": 7.38}

I = CCCOC(C)(C)c1nnc(-c2nn(-c3ccc(Cl)cc3Cl)c(-c3ccc(Cl)cc3)c2C)s1
II = CC(C)(C)c1nnc(-c2nn(-c3ccc(Cl)cc3Cl)c(-c3ccc(Cl)cc3)c2Cn2cccc2)o1
III = Clc1ccc(-c2c(C3CC3)c(-c3nnc(C4CCCCC4)s3)nn2-c2ccc(Cl)cc2Cl)cc1
IV = CC(C)(C)c1nnc(-c2nn(-c3ccc(Cl)cc3Cl)c(-c3ccc(Cl)cc3)c2Cn2ccnc2)o1
Challenge: Sort low-to-high on pIC50, please. // respond by listing labels in the order requested
Response given: I, II, IV, III
(I: 7.21, II: 7.42, IV: 7.73, III: 7.96)

A = CCC(C)(C)c1nnc(-c2nn(-c3ccc(Cl)cc3Cl)c(-c3ccc(Cl)cc3)c2Cl)o1
B = CCC(C)c1nnc(-c2nn(-c3ccc(Cl)cc3Cl)c(-c3ccc(Cl)cc3)c2C)s1 (stereo not drawn)
C = Cc1c(-c2nnc(C3(c4ccc(Cl)cc4Cl)CC3)o2)nn(-c2ccc(Cl)cc2Cl)c1-c1ccc(Cl)cc1
Challenge: # rank_down: sort by pIC50, max first Lab note: record answer as labels in requested order.
Response given: C, B, A
(C: 8.09, B: 7.61, A: 7.29)

1 = CC(C)(C)c1nnc(-c2nn(-c3ccc(Cl)cc3Cl)c(-c3ccc(Cl)cc3)c2CN2CCCCC2)o1
2 = COC(=O)NCc1c(-c2nnc(C(C)(C)C)o2)nn(-c2ccc(Cl)cc2Cl)c1-c1ccc(Cl)cc1
Challenge: Min pIC50? 1 | 2 Label of pick, please.
Response given: 1

###

Biological target: Cannabinoid-1 receptor (CB1R) (Rattus norvegicus, UniProt P20272)
Construct: The tissue obtained from the brain of SD rats was homogenized; from tissue; host or cells: brain of SD rats (membrane pellet of the homogenate)
Test: Cannabinoid-1 receptor (CB1R) binding affinity assay ([3H]CP-55940, rat CB-1 receptor binding protocol)
Conditions: brain tissue of SD rats, [3H]CP-55940, 30° C. 60 min; read-out: IC50
pIC50: −log10 of the molar value.
reportedProperty: pIC50

{"cpdSmiles": "CCc1c(-c2nnc(C3CCC3)s2)nn(-c2ccc(Cl)cc2Cl)c1-c1ccc(Br)cc1", "assayedSystem": "Cannabinoid-1 receptor (CB1R) (Rattus norvegicus, UniProt P20272)", "pIC50": 7.73}
{"cpdSmiles": "Cc1c(-c2nnc(C3CCC3)s2)nn(-c2ccc(Cl)cc2)c1-c1ccc(Br)cc1", "assayedSystem": "Cannabinoid-1 receptor (CB1R) (Rattus norvegicus, UniProt P20272)", "pIC50": 6.02}
{"cpdSmiles": "Cc1c(-c2n[nH]c(-c3cccs3)n2)nn(-c2ccc(Cl)cc2Cl)c1-c1ccc(Cl)cc1", "assayedSystem": "Cannabinoid-1 receptor (CB1R) (Rattus norvegicus, UniProt P20272)", "pIC50": 6.41}
{"cpdSmiles": "Cc1c(-c2nnc(C(C)(C)C)s2)nn(-c2ccccc2Cl)c1-c1ccc(Cl)cc1", "assayedSystem": "Cannabinoid-1 receptor (CB1R) (Rattus norvegicus, UniProt P20272)", "pIC50": 7.83}
{"cpdSmiles": "CCc1c(-c2nnc(C3(c4ccc(C)cc4)CC3)o2)nn(-c2ccc(Cl)cc2Cl)c1-c1ccc(Br)cc1", "assayedSystem": "Cannabinoid-1 receptor (CB1R) (Rattus norvegicus, UniProt P20272)", "pIC50": 8.35}

I = CC(C)(C)c1nnc(-c2nn(-c3ccc(Cl)cc3Cl)c(-c3ccc(Br)cc3)c2CO)o1
II = Clc1ccc(-c2c(Br)c(-c3nnc(C4(c5ccc(Cl)cc5)CC4)o3)nn2-c2ccc(Cl)cc2Cl)cc1
Challenge: Lab notebook, comparison: I versus II , higher pIC50 goes to which? Could you answer with the label of the item you picked?
Response given: I
